- testedOn: hNSun6 (Homo sapiens, UniProt Q8TEA1, K248A)
- Sequence (Q8TEA1 1-469 K248A): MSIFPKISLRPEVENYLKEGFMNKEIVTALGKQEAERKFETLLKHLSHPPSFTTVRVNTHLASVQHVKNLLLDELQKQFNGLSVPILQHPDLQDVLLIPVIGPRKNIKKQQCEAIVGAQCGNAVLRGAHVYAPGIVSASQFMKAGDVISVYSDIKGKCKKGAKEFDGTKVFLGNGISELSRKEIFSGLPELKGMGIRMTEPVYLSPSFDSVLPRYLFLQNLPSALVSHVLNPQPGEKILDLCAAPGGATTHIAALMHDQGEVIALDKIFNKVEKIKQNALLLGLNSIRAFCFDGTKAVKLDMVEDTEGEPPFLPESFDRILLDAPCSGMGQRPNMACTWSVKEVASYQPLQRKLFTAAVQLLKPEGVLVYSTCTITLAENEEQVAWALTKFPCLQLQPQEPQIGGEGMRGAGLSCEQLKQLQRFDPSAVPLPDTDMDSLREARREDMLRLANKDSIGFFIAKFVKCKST
- experimentNotes: isothermal titration calorimetry
measure: pKd
Give bare numbers, as −log10 of the molar value.

// query # return recorded pKd for input C[S+](CC[C@H](N)C(=O)O)C[C@H]1O[C@@H](n2cnc3c(N)ncnc32)[C@H](O)[C@@H]1O (stereo partly shown)
// result 4.99
